// data source = ChEMBL document CHEMBL1136005

test: Plasma concentration was determined after 1 hr at a dose 30 mg/kg administered orally to rat-9; type: ADME, organism-based; parameters: dose 30 mg/kg, route oral; conditions: po
observed property: concentration at 1 h (ng/mL)
Could you give me the number in ng/mL? Just the number is fine.

Give recorded concentration at 1 h. COc1cc2ncnc(N3CCN(/C(S)=N\Cc4ccc5c(c4)OCO5)CC3)c2cc1OC 5100

---

target: Platelet-derived growth factor receptor (Homo sapiens, UniProt P09619+P16234); experiment: Concentration required for 50% inhibition against autophosphorylation of Platelet-derived growth factor receptor beta in intact cells using a two site ELISA
pIC50: −log10 of the molar value.
Class field: derived from pIC50; ranges lower band (below 6), central band (6 to below 7), upper band (7 or more)

Consider the worked cases shown below.
compound	label class
COc1cc2ncnc(N3CCN(C(=O)Nc4ccc(C(C)(C)C)cc4)CC3)c2cc1OC	upper band
COc1ccc(CNC(=S)N2CCN(c3ncnc4cc(OC)c(OC)cc34)CC2)cc1OC	lower band
COc1cc2ncnc(N3CC(C)N(/C(S)=N\Cc4ccccc4)C(C)C3)c2cc1OC (stereo not given)	central band
COc1cc2ncnc(N3CCN(C(=O)Nc4ccncc4)CC3)c2cc1OC	lower band

Please find the next compound below.
Please classify: COc1cc2ncnc(N3CCN(C(=S)Nc4ccccn4)CC3)c2cc1OC lower band
